Origin of measurements: patent US12180207B2

MEASUREMENT_TARGET: FGFR3 (SEQ ID NO: 5, amino acids 449-759) (Homo sapiens (Human), UniProt P22607)
MEASUREMENT_DESCRIPTION: LC/MS FGFR3 kobs assay (covalent protein modification)
Format: binding
MEASUREMENT_CONDITIONS: 500 nM FGFR3, 3 μM compound
Field 'label' (enum: y / n). Set to y when FGFR3 Enz kobs is strictly under 0.007 min⁻¹; else n.

>  <SMILES_DATA>
C=CC(=O)N1CC(C#N)(C(=O)N2CCC(n3cc(-c4cc(OC)c5c(C#N)cnn5c4)cn3)CC2)C1

>  <MEASUREMENT_TARGET>
FGFR3 (SEQ ID NO: 5, amino acids 449-759) (Homo sapiens (Human), UniProt P22607)

>  <ASSIGNED_CLASS>
n

$$$$
>  <SMILES_DATA>
COc1cc(-c2cnn(C3CCN(C(=O)C4CN(C(=O)/C=C/CN5CCOCC5)C4)CC3)c2)cn2ncc(C#N)c12

>  <MEASUREMENT_TARGET>
FGFR3 (SEQ ID NO: 5, amino acids 449-759) (Homo sapiens (Human), UniProt P22607)

>  <ASSIGNED_CLASS>
y

$$$$
>  <SMILES_DATA>
C=CC(=O)N1CC(C(=O)N2CCC(n3cc(-c4cc(C(C)C)c5c(C#N)cnn5c4)cn3)CC2)C1

>  <MEASUREMENT_TARGET>
FGFR3 (SEQ ID NO: 5, amino acids 449-759) (Homo sapiens (Human), UniProt P22607)

>  <ASSIGNED_CLASS>
n

$$$$
>  <SMILES_DATA>
C=CC(=O)N1CCC(C(=O)N2CCC(n3cc(-c4cc(OC)c5c(C#N)cnn5c4)cn3)CC2)CC1

>  <MEASUREMENT_TARGET>
FGFR3 (SEQ ID NO: 5, amino acids 449-759) (Homo sapiens (Human), UniProt P22607)

>  <ASSIGNED_CLASS>
y

$$$$
>  <SMILES_DATA>
C=CC(=O)N1CCC(Oc2cccc(-n3cc(-c4cc(OC)c5c(C#N)cnn5c4)cn3)c2)CC1

>  <MEASUREMENT_TARGET>
FGFR3 (SEQ ID NO: 5, amino acids 449-759) (Homo sapiens (Human), UniProt P22607)

>  <ASSIGNED_CLASS>
y

$$$$
>  <SMILES_DATA>
C=CC(=O)Nc1ccc(CN2CCC(n3cc(-c4cc(OC)c5c(C#N)cnn5c4)cn3)CC2)cc1

>  <MEASUREMENT_TARGET>
FGFR3 (SEQ ID NO: 5, amino acids 449-759) (Homo sapiens (Human), UniProt P22607)

>  <ASSIGNED_CLASS>
n

$$$$

---

MEASUREMENT_TARGET: phosphorylated FGFR3 (SEQ ID NO: 5, amino acids 449 to 759) (Homo sapiens (Human), UniProt P22607)
Sequence (P22607 449-759): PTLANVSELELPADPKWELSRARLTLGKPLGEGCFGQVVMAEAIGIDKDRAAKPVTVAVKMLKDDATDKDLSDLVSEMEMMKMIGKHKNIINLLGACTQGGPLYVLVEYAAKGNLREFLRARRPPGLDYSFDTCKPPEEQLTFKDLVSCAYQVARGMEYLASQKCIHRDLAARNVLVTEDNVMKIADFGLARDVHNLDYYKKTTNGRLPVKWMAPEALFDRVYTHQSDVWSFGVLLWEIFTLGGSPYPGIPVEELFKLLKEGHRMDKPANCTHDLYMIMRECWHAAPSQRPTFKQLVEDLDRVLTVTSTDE
pIC50: −log10 of the molar value.
# cutoff 8 applies to pIC50; >= gives class 1, < gives class 0

>  <SMILES_DATA>
C=CC(=O)N1CC(CC)(C(=O)N2CCC(n3cc(-c4cc(OC)c5c(C#N)cnn5c4)cn3)CC2)C1

>  <ASSIGNED_CLASS>
class 1

$$$$
>  <SMILES_DATA>
C=CC(=O)NC1CCN(C(=O)c2ccc(-c3cc(OC)c4c(C#N)cnn4c3)cc2)CC1

>  <ASSIGNED_CLASS>
class 0

$$$$
>  <SMILES_DATA>
C=CC(=O)N1CC(C(=O)N2CC3CC(C2)N3c2ccc(-c3cc(OC)c4c(C#N)cnn4c3)cn2)C1

>  <ASSIGNED_CLASS>
class 0

$$$$
>  <SMILES_DATA>
C=CC(=O)N1CCN(C(=O)N2CCC(n3cc(-c4cc(OC)c5c(C#N)cnn5c4)cn3)CC2)C[C@@H]1CC#N

>  <ASSIGNED_CLASS>
class 1

$$$$
>  <SMILES_DATA>
C=CS(=O)(=O)N1CC[C@H](C(=O)N2CCC(n3cc(-c4cc(OC)c5c(C#N)cnn5c4)cn3)CC2)C1

>  <ASSIGNED_CLASS>
class 1

$$$$
>  <SMILES_DATA>
C=CC(=O)N1C[C@H]2C[C@@H]1CN2C(=O)N1CCC(n2cc(-c3cc(OC)c4c(C#N)cnn4c3)cn2)CC1

>  <ASSIGNED_CLASS>
class 1

$$$$
>  <SMILES_DATA>
C=CC(=O)N1CCC(Oc2cccc(-n3cc(-c4cc(OC)c5c(C#N)cnn5c4)cn3)c2)CC1

>  <ASSIGNED_CLASS>
class 0

$$$$
>  <SMILES_DATA>
C=CC(=O)N1CC[C@@H](C(=O)N2CC[C@@H](n3cc(-c4cc(OC)c5c(C#N)cnn5c4)cn3)C2)C1

>  <ASSIGNED_CLASS>
class 0

$$$$
>  <SMILES_DATA>
COc1cc(-c2nn(C3CCN(C(=O)C4(F)CN(C(=O)/C=C/CN(C)C)C4)CC3)nc2C)cn2ncc(C#N)c12

>  <ASSIGNED_CLASS>
class 0

$$$$
